For each entry below, report its cell viability value.
# Test system: HepG2
# assay name: cell viability relative to DMSO; higher = less toxic
# condition set: 72 h; 100 nM
Give bare numbers, in %.

Below are worked cases with known answers.
| compound | unit annotation | cell viability |
| --- | --- | --- |
| O=C(Nc1ccc(S(=O)(=O)Nc2ccccc2Cl)c(Cl)c1)c1ccccn1 | % | 91.4 |
| CN[C@@H](C)C(=O)N[C@H](C(=O)N1CCC[C@H]1c1nc(C(=O)c2ccc(F)cc2)cs1)C1CCCCC1 [LCL-161] | % | 99.8 |
| CN(C(=O)Cc1ccc(Cl)c(Cl)c1)[C@H](CN1CCCC1)c1ccccc1 | % | 106 |

Fill in cell viability for each of the 2 compounds listed.
1. O[C@H]1CC[C@H](Nc2nc(-c3ccccc3)nc3[nH]ccc23)CC1 [SLV-320]
2. CCCC(CCC)C(=O)NCc1ccc2c(cnn2-c2ccccc2OC)c1 [M-25]

94.9
101

###

For each entry below, report its cell viability value.
# Tested on: Vero E6
# assay name: cell viability relative to DMSO; higher = less toxic
# condition set: 72 h; 1000 nM
Numbers only, in %.

Below are worked cases with known answers.
| compound | cell viability [%] |
| --- | --- |
| CC[C@H](CO)Nc1nc(Nc2cccc(-c3ccccn3)c2)c2ncn(C(C)C)c2n1 [DRF053-(R)] | 89.8 |
| Cc1cc(-c2ccccc2)nnc1NCCN1CCOCC1 [minaprine] | 100 |
| FC(F)(F)c1ccc(N2CCNCC2)nc1Cl | 95.6 |
| CNC(=O)Oc1ccccc1OC(C)C [propoxur] | 88.2 |
| Cn1cc(/C=C2\C(=O)Nc3cccnc32)c2ccccc21 | 87 |

Fill in cell viability for each of the 8 compounds listed.
1. CC(NCCc1ccc(O)cc1)C(O)c1ccc(O)cc1 (centres undefined) [ritodrine]
2. COc1ccc2cc(CCC(C)=O)ccc2c1 [nabumetone]
3. OC(CNCC(O)C1CCc2cc(F)ccc2O1)C1CCc2cc(F)ccc2O1 (centres undefined) [nebivolol]
4. CCN(CCO)CCCOc1ccc2c(Nc3cc(CC(=O)Nc4cccc(F)c4)[nH]n3)ncnc2c1 [barasertib-HQPA]
5. CC(C)Oc1ccc(-c2nc(-c3cccc4c3CC[C@H]4NCCC(=O)O)no2)cc1C#N [RP-001]
6. CCN(CC)CCO[C@H]1CC[C@@]2(C)C(=CC[C@@H]3[C@@H]2CC[C@]2(C)C(=O)CC[C@@H]32)C1
7. O=C(Nc1cccnn1)N1CCC(=Cc2cccc(Oc3ccc(C(F)(F)F)cn3)c2)CC1
8. C[C@@H](CCCCC(=O)Nc1ccc(C(F)(F)F)cc1)NCCc1c[nH]cn1 [HTMT]

1. 98.9
2. 93.8
3. 94.2
4. 91
5. 101
6. 92.3
7. 87.3
8. 100

If you can, please state the reported cell viability value of `CNC(=O)Nc1ccc(-c2nc(N3CC4CCC(C3)O4)c3cnn(C4CCC5(CC4)OCCO5)c3n2)cc1` . 43.8

###

# System: HepG2
# assay name: cell viability relative to DMSO; higher = less toxic
# condition set: 72 h; 10 nM
endpoint label: cell viability
For clarity, give the value followed by its unit.

Below are worked cases with known answers.
| compound | cell viability |
| --- | --- |
| CCN(CCO)CCCOc1ccc2c(Nc3cc(CC(=O)Nc4cccc(F)c4)[nH]n3)ncnc2c1 [barasertib-HQPA] | 99.7% |
| COc1cc2ncnc(Nc3cccc(Cl)c3)c2cc1OC [tyrphostin-AG-1478] | 85.3% |

API: the following record is the query input.
If you can, please state the reported cell viability value of `CC(C)c1c2cc(-c3ccnc(N[C@H]4CC[C@H](NC5CCOCC5)CC4)n3)ccc2nn1C` . 101%

The measured values listed here are drawn from the supplement of paper PMC13380429.
